System: CCRF-CEM
Assay: NCI tumour cell line growth inhibition, 48 h
The source made the active and inactive calls. No stated cut-off is given here; in the data, active = GI50 up to about 1.1 µM and inactive = higher.
Reported Property: GI50

• CN(C)c1ccc(/C=C(\NC(=O)c2ccccc2)C2NC(Cc3c[nH]c4ccccc34)C(=O)O2)cc1 (centres undefined) = 8.91 µM (inactive)
• S=C(N/N=C(/c1ccccc1)c1ccccn1)Nc1ccccc1Cl = < 0.01 µM (active)
• Nc1cc2ncnc(Nc3cccc(Br)c3)c2cn1 = 96.8 µM (inactive)
• COc1cc(N(Cc2ccc3oc(=O)c(-c4ccccc4)nc3c2)Cc2ccc3oc(=O)c(-c4ccccc4)nc3c2)cc(OC)c1OC = > 10 µM (inactive)
• Cn1c(-c2cccs2)cc(-c2cccs2)c1-c1cccs1 = 67 µM (inactive)
• CN(C)CCNC(=O)c1ccc(NCCCN(C)CCCNc2ccc(C(=O)NCCN(C)C)c3nc4ccc([N+](=O)[O-])cc4c(O)c23)c2c(O)c3cc([N+](=O)[O-])ccc3nc12 = < 0.01 µM (active)
• CN(C(=O)C12C3C4C1C1C2C3C41C(=O)O)C(C)(C)C (centres undefined) = > 100 µM (inactive)
• COC(=O)c1ccc(OCc2ccc3nc(OC)c(OC)nc3c2)cc1 = > 100 µM (inactive)
• Cc1c(C(=O)CC(=O)C(=O)Nc2ccc(Cl)cc2)[n+]([O-])c2ccccc2[n+]1[O-] = > 100 µM (inactive)

---

Tested on: SF-295
Assay: NCI tumour cell line growth inhibition, 48 h
Active and inactive are the calls of the source. No stated cut-off is given here; in the data, active = GI50 up to about 1.1 µM and inactive = higher.
Reported GI50 by item:
Reported Property: GI50

- Cc1ccc(S(=O)(=O)NC(=O)NCC(=O)O)cc1: > 100 µM (inactive)
- Cc1cc(NS(=O)(=O)c2ccc(NC(=O)c3ccc4[nH]c5ccccc5c(=O)c4c3)cc2)no1: > 100 µM (inactive)
- Cc1ccsc1/C=N/Nc1cc(C)c2cccc(C)c2n1: 9.33 µM (inactive)
- CCc1cc2c(c3c1CCC3=O)CC1(Cc3ccc(C)cc3C1)C2 (stereo not given): 80.2 µM (inactive)
- CC1(C)CC(=O)C(C(c2cccc(O)c2O)C2C(=O)CC(C)(C)CC2=O)C(=O)C1: > 100 µM (inactive)

---

System: SR
Experiment: NCI tumour cell line growth inhibition, 48 h
Active and inactive are the calls of the source. Cut-off read from the data, not from the text of the source: active = GI50 up to about 1.1 µM and inactive = higher.
Reported Property: GI50

• Cc1cc(NS(=O)(=O)c2ccc(NC(NC(=O)C(C(F)(F)F)C(F)(F)F)(C(F)(F)F)C(F)(F)F)cc2)no1 = > 100 µM (inactive)
• O=C(Cc1nc2ccc(C(=O)c3ccccc3)cc2nc1O)C(=O)Nc1ccccc1[N+](=O)[O-] = 29.2 µM (inactive)
• CCOc1ccccc1NC(=O)CC1C(=O)Nc2ccccc2[S+]1[O-] (centres undefined) = 16.5 µM (inactive)
• O=C(c1cccs1)N1CCc2ccccc2C1 = 97.5 µM (inactive)

---

Tested on: KM12
Experiment: NCI tumour cell line growth inhibition, 48 h
The source made the active and inactive calls. No stated cut-off is given here; in the data, active = GI50 up to about 1.1 µM and inactive = higher.
Reported Property: GI50

* c1ccc(CCNCc2ccco2)nc1 | > 100 µM (inactive)
* COc1ccc(/C(=N/O)c2ccccc2-c2nc3ccccc3c(=O)n2-c2ccc(S(=O)(=O)Nc3ncccn3)cc2)cc1C | 18.1 µM (inactive)
* CC(/C=C/C(=O)c1sc(-n2nc(-c3ccccc3)cc2-c2ccccc2)nc1C)=C\c1ccccc1 | 23.8 µM (inactive)
* O=C(NC(=O)c1cc2cc(Br)cc(Br)c2oc1=O)Oc1ccccc1 | 93.8 µM (inactive)
* COc1ccc(C2S/C(=C\c3ccccc3)C(=O)N2NC(=O)Cc2ccccc2)cc1 (stereo unspecified) | > 100 µM (inactive)
* Nc1ccc(C(c2ccccc2)(c2ccccc2)c2ccccc2)cc1 | 55.6 µM (inactive)
* COc1ccc(/C=c2/[nH]c(=O)/c(=C\c3ccc(OCc4ccccc4)cn3)[nH]c2=O)cc1 | 47.1 µM (inactive)
* CCN(CC)c1ccc2c(c1)Nc1cc(=C(C#N)C#N)c3ccccc3c1=N2 | > 100 µM (inactive)
* NS(=O)(=O)c1cc(S(N)(=O)=O)c(NC(=O)N(c2ccccc2)c2ccccc2)c(Cl)c1Cl | 20.3 µM (inactive)
* Cc1c(OCc2cccc3ccccc23)ccc2c(O)cc(=S)oc12 | 29.2 µM (inactive)
* Cc1c(C)c2c(c(N)c1C#N)C(=O)N(CCc1ccccc1)C2=O | > 100 µM (inactive)

Each recorded value in this set is attributed to ChEMBL document CHEMBL1201862.
